Hey, just so you know, these numbers are from paper PMC5071164.

- study.target: Farnesoid X receptor (FXR) ligand binding domain (Homo sapiens, UniProt Q96RI1)
- Sequence (Q96RI1 203-486): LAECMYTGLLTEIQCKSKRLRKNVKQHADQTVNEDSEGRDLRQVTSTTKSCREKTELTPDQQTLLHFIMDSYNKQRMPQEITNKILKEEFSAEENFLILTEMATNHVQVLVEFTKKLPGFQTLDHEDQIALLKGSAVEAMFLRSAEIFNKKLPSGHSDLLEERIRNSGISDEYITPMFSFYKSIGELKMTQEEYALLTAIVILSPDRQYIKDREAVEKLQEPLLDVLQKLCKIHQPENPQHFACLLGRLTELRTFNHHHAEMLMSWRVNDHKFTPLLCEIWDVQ
- measurement.protocol: Intrinsic tryptophan fluorescence quenching titration
measured.endpoint: Kd (nM)

>>> print(df.to_string())
                                   compound  value_measured
0  COc1cc(O)c(CC=C(C)C)c(O)c1C(=O)/C=C/c1ccc(O)cc1 [XN, xanthohumol]            2680
